# RAM network inhibition per record follows
# assay-details: RAM signaling pathway blockade in yeast – S. cerevisiae, Pdr1DBD-CYC8 efflux-inhibited sensitized strain, primary screen (AID 1298);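 note: 0% = DMSO untreated cells without growth and 100% = 10 µM 1-NA-PP1 full growth; higher means more yeast growth rescued from 5-FOA killing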
# study-conditions: S. cerevisiae cbk1-as DSE1-URA3 strain, 5-FOA growth OD615, 2 d; at 50 µM; active compounds read high
Lab book: enter the figure in %, no units written.

Sample answers from the record:
CCOc1ccccc1N1C(=O)CC(N(O)c2ccccc2)C1=O (stereo not drawn) = 12.8
O=C(Cn1ncc2c1-c1ccccc1OC2)N1CCN(Cc2ccc3c(c2)OCO3)CC1 = 2.06
CCOc1cc(C(=O)Nc2nnc(C)s2)cc(OCC)c1OCC = 0.63
CCOC(=O)NC(Nc1ccc(C)cn1)(C(F)(F)F)C(F)(F)F = 0.7
COc1ccc(-n2c(=O)c3ccccc3n(CC(=O)NC3CCCC3)c2=O)c(OC)c1 = 3.21

# input Fill in RAM network inhibition for record COc1cc2c(cc1OC)C(C(=O)N1CCCC1)C(c1ccccc1F)N(C)C2=O (stereo not drawn)
# output 3.55

# input Read the entry Cc1ccc(C(=O)NCCn2cc(SCC(=O)Nc3nnc(C)s3)c3ccccc32)cc1 and write its reported RAM network inhibition.
# output 0.63

# input Supply measured RAM network inhibition of COc1ccc(S(=O)(=O)N2CCC(C(=O)NCCC3=CCCCC3)CC2)cc1OC in your reply.
# output 4.24

# input Write down RAM network inhibition measured for item O=C(C1CC1)N1CCCN(C(=O)C2CC2)CC1
# output 4.69

# input Query RAM network inhibition for CCS(=O)(=O)N1CCN(Cc2nc3ccccc3c(=O)[nH]2)CC1
# output 6.05

# input Answer with the recorded RAM network inhibition of Cc1ccc(C)c(NC(=O)CSc2nnc(-c3ccccc3)n2N)c1 only.
# output 3.95

# input Retrieve RAM network inhibition measured for Cc1ccsc1C1NC(=O)c2c(sc3c2CCN(C)C3)N1 (stereo not drawn) and print it.
# output -0.83

# input For the compound O=C(Cn1cc2c(n1)CCCC2)NCCCN1CCN(Cc2ccccc2)CC1 , give its measured RAM network inhibition value.
# output -0.1

# input Report RAM network inhibition, nothing else, for this compound: COc1cc(NC(=O)c2cc(-c3cccc(O)c3)on2)cc(OC)c1OC
# output 6.05

# input Identify RAM network inhibition associated with the compound O=C(OCCCCN1C(=O)c2ccccc2C1=O)c1ccc(S(=O)(=O)N2CCCC2)cc1
# output 4.52

# input State, in one line, measured RAM network inhibition of Cc1nnc(SCCC(C)C)[nH]c1=O
# output 3.25

# input Look up and state reported RAM network inhibition for COc1ccc(Br)cc1C1CC(=O)N2CN(Cc3ccccc3)CSC2=C1C#N (stereo not drawn)
# output 4.51

# input Give RAM network inhibition for Cc1ccc(C)c2[nH]c(=O)c(CCNC(=O)CC(C)C)cc12
# output 8.88

# input Report RAM network inhibition for COc1ccccc1NC(=O)CSc1nnnn1C
# output 3.12

# input Give RAM network inhibition for the following compound: COc1cc(NC(=O)c2cc(C(C)C)on2)cc(OC)c1OC
# output -0.99

# input Answer with the recorded RAM network inhibition of CCOC(=O)CSc1nc2ccccc2c(=O)[nH]1 only.
# output 3.03

# input In one line, give reported RAM network inhibition of the entry O=C(NCc1ccccc1)c1ccc(/C=N/O)nc1 .
# output 6.66

# input Give the value of RAM network inhibition reported for the following: COc1ccc(C2C(C(=O)Nc3cccc(C)n3)c3ccccc3C(=O)N2C)cc1 (stereo not drawn)
# output 2.93
